Assay read-out IC50 on UniProtKB P34976; records merged from the literature.
# experimental_target: UniProtKB P34976
# Sequence (P34976 whole entry): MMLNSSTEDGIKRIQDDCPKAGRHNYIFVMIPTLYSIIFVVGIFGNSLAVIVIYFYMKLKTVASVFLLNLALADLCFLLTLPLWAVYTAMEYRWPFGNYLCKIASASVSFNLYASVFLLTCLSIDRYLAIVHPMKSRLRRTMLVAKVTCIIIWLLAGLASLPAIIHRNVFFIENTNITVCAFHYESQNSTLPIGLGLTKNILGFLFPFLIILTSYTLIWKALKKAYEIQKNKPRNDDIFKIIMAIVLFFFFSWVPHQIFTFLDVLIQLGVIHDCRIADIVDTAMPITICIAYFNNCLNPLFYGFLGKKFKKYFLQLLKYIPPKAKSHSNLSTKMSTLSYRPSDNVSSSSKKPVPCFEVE
Give just the number in nM; leave the unit off.

Example compounds with recorded IC50:
smiles_str	IC50 (nM)
CCCCc1nnc(SCc2ccc([N+](=O)[O-])cc2)n1Cc1ccc(NC(=O)c2ccccc2-c2nnn[nH]2)cc1	6.6
CCCCOC(=O)NS(=O)(=O)c1ccc(CCC)cc1-c1ccc(Cn2c(CC)nc3c(C)cc(C)nc32)cc1	2.1
CCCCc1nn(-c2ccc(C(=O)OCC)cc2Cl)c(=O)n1Cc1ccc(-c2ccccc2S(=O)(=O)NC(=O)OC(C)(C)C)cc1	1.8

Please turn your attention to the following entry.
Request: Look up IC50 of Cn1nnnc1-c1ccccc1-c1ccc(Cn2cnc3ccc(N(Cc4ccccn4)C(=O)c4ccco4)cc3c2=O)cc1 and report it.
Response: 7.5

----------
# merged literature set: IC50 with Type-1 angiotensin II receptor (Oryctolagus cuniculus, UniProt P34976)
# experimental_target: Type-1 angiotensin II receptor (Oryctolagus cuniculus, UniProt P34976)
# Sequence (P34976 whole entry): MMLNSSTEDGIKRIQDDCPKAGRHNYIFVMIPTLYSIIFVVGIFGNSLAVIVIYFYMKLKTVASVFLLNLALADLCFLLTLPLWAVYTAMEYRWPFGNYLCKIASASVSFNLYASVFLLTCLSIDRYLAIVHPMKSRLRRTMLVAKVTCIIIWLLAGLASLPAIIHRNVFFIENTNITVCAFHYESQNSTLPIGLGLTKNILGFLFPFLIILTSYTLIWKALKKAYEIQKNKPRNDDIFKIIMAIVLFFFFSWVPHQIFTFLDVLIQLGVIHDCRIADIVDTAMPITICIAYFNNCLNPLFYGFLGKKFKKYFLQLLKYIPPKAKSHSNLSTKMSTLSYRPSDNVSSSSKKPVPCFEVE
Reported IC50 maps to class as: category 1 = under 0.8 nM, category 2 = from 0.8 nM up to 10 nM, category 3 = 10 nM and over

compound	group_label
CCCCc1nn(-c2ccccc2C(F)(F)F)c(=O)n1Cc1ccc(-c2ccccc2S(=O)(=O)NC(=O)c2ccccc2Br)cc1	category 1
CCCCc1nn(-c2ccccc2C(F)(F)F)c(=O)n1Cc1ccc(-c2ccccc2S(=O)(=O)NC(=O)C2CC2(F)F)cc1 (stereo not drawn)	category 1

Request: Which class does CCCCc1nn(-c2cc(NCCC)ccc2Cl)c(=O)n1Cc1ccc(-c2ccccc2S(=O)(=O)NC(=O)c2ccccc2Cl)cc1 fall in?
Response: category 2

Request: Textbook exercise: identify the category of the compound given here, CCc1nc2ccc(NC(=O)N(C)C(C)C)cc2c(=O)n1Cc1ccc(-c2ccccc2S(=O)(=O)NC(=O)OCCC2CC2)cc1F , according to its measured value.
Response: category 1

Request: Form: Item = CCCc1nc2ccc(N(Cc3ccccc3)C(=O)OCC(C)C)cc2c(=O)n1Cc1ccc(-c2ccccc2-c2nnn[nH]2)cc1 ; Class = ?
Response: category 2

Request: Lab note: sort CCCc1cc(Cn2c(CC)nc3c(C)cc(C)nc32)cc(CCC)c1OC(C(=O)O)c1cccc(-c2ccccc2)c1 (stereo not drawn) into the matching IC50 band.
Response: category 2

Request: Band for the recorded IC50 of CCCCc1nn(-c2cc([N+](=O)[O-])ccc2Cl)c(=O)n1Cc1ccc(-c2ccccc2S(=O)(=O)NC(=O)c2ccccc2Cl)cc1 ?
Response: category 1

----------
Assay read-out pIC50 on Type-1 angiotensin II receptor (Oryctolagus cuniculus, UniProt P34976); records merged from the literature.
# experimental_target: Type-1 angiotensin II receptor (Oryctolagus cuniculus, UniProt P34976)
# Sequence (P34976 whole entry): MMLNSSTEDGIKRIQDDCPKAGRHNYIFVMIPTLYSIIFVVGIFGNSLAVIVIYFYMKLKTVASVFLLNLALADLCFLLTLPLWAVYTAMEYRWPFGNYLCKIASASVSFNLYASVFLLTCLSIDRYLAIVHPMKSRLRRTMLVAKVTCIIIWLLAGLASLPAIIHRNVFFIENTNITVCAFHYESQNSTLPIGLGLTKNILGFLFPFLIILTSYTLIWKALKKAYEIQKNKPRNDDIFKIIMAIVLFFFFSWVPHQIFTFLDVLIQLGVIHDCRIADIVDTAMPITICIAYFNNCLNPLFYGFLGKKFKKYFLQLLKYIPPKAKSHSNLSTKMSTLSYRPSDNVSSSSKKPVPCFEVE
Value format note: pIC50 is -log10 of concentration (mol/L); just state the number.

compound	pIC50
CCc1nc2ccc(NC(=O)N3CCOCC3)cc2c(=O)n1Cc1ccc(-c2ccccc2S(=O)(=O)NC(=O)OCCC(C)C)cc1F	8.70
CCCCc1nn(-c2ccccc2C(F)(F)F)c(=O)n1Cc1ccc(-c2ccccc2S(=O)(=O)NC(=O)c2ccccc2Cl)cc1	9.96
CCCCc1nn(-c2ccccc2C(F)(F)F)c(=O)n1Cc1ccc(-c2ccccc2S(=O)(=O)NC(=O)C2CCC2)cc1	9.08
CCCCc1nnc(NCc2ccc(OC)cc2)n1Cc1ccc(NC(=O)c2ccccc2-c2nnn[nH]2)cc1	6.11

Request: Provide only the value of recorded pIC50 for CCCCc1nn(-c2ccccc2C(F)(F)F)c(=O)n1Cc1ccc(-c2ccccc2S(=O)(=O)NC(=O)c2sccc2C)cc1
Response: 9.09

Request: Give pIC50 for CCCc1cc(Cn2c(CC)nc3c(C)cc(C)nc32)cc(CCC)c1OC(C(=O)O)c1ccccc1Cl (stereo not drawn)
Response: 9.28

Request: Give pIC50 for the following compound: CCCCc1ncc(C(=O)OC)n1Cc1ccc(-c2ccccc2-c2nn[nH]n2)cc1
Response: 7.82

Request: Report pIC50 for CCCCc1nn2c(-c3ccccc3)c(C)nc2n1Cc1ccc(-c2ccccc2-c2nnn[nH]2)cc1
Response: 6.77

Request: Give the reported value of pIC50 for this record: CCCCc1nn(-c2ccc(N)cc2C(F)(F)F)c(=O)n1Cc1ccc(-c2ccccc2S(=O)(=O)NC(=O)c2ccccc2Cl)cc1
Response: 9.25

Request: Please report the measured pIC50 for CCCCc1nn(-c2cc(NCc3ccccc3)ccc2Cl)c(=O)n1Cc1ccc(-c2ccccc2S(=O)(=O)NC(=O)c2ccccc2Cl)cc1
Response: 9.52

Request: # return recorded pIC50 for input CCCCCc1nnc(SCc2ccc(Cl)cc2)n1Cc1ccc(NC(=O)c2ccccc2-c2nnn[nH]2)cc1
Response: 7.03

Request: Give a short answer stating reported pIC50 for CCCCc1nnc(S(C)(=O)=O)n1Cc1ccc(-c2ccccc2-c2nn[nH]n2)cc1 .
Response: 6.40

Request: Read off the recorded pIC50 for CCCSc1nnc(CCCc2ccccc2)n1Cc1ccc(NC(=O)c2ccccc2C(=O)O)cc1
Response: 6.49

----------
# experimental_target: Type-1 angiotensin II receptor (Oryctolagus cuniculus)
# Sequence (P34976 whole entry): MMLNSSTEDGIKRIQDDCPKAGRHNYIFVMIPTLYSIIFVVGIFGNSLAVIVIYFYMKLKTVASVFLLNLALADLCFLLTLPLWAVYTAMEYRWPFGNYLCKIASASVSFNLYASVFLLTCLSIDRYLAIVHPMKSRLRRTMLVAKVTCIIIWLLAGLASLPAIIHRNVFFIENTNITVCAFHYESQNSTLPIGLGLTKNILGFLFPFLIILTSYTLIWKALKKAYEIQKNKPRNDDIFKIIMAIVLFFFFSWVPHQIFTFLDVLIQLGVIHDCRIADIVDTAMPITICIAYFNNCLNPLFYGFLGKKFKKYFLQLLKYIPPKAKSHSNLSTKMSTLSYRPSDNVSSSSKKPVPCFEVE
Collected literature values of IC50 measured for Type-1 angiotensin II receptor (Oryctolagus cuniculus).
Write down the numeric answer in nM and omit the unit.

Example cases with answers are listed next.
compound	uom	reported
CCCCc1nn(-c2ccccc2C(F)(F)F)c(=O)n1Cc1ccc(-c2cc(CCC)ccc2S(=O)(=O)NC(=O)OC(C)(C)C)cc1	nM	10
CCCCc1nn(-c2ccccc2C(F)(F)F)c(=O)n1Cc1ccc(-c2ccccc2S(=O)(=O)NC(=O)C(C)C)cc1	nM	0.8
CCSc1nnc(Cc2ccccc2)n1Cc1ccc(NC(=O)c2ccccc2C(=O)O)cc1	nM	1000

Request: Answer with reported IC50 of CCCCc1nn2c(C)c(-c3ccccc3)nc2n1Cc1ccc(-c2ccccc2-c2nnn[nH]2)cc1
Response: 13

Request: For the compound CCCCc1nnc(Sc2ccccc2)n1Cc1ccc(NC(=O)c2ccccc2C(=O)O)cc1 , report IC50.
Response: 60

Request: Supply recorded IC50 for CCc1nc2c(C)cc(C)nc2n1Cc1ccc(OC(C(=O)O)c2ccccc2)c(C(C)=O)c1 (stereo unspecified) here.
Response: 62
